molecular target: DPB1*04:01 (Homo sapiens, UniProt P04440+P20036); construct: EBV transformed homozygous cell lines were used as sources of MHC molecules; endogenous in cells; host or cells: EBV transformed homozygous cell lines; assay: HLA class II peptide binding, inhibition of radiolabeled peptide binding to purified MHC; details: DP; purified MHC, competition with radiolabeled peptide, two-day incubation, three or more independent experiments
pIC50: −log10 of the molar value. Ends that are not written are not given here.
REPORTED METRIC: pIC50

SEQUENCE DATA: SAVRLRSSVPGVR [Vimentin 66–78 WT]
RESULT: < 4.52
//
SEQUENCE DATA: LQYMRADQAAGGLR [Collagen II 1236–1249 WT]
RESULT: < 4.52
//
SEQUENCE DATA: NQDFTNRINKLKNS [Fibrinogen 78–91 WT]
RESULT: < 4.52
//
SEQUENCE DATA: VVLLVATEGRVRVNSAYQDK [Aggrecan 84–103 WT]
RESULT: 4.58
